Target: human GOAT (Homo sapiens, UniProt Q96T53)
Construct: His; made in house; host or cells: Sf9 insect cells (baculovirus, pAN51 vector); microsomal membrane preparation
Sequence (Q96T53 1-435): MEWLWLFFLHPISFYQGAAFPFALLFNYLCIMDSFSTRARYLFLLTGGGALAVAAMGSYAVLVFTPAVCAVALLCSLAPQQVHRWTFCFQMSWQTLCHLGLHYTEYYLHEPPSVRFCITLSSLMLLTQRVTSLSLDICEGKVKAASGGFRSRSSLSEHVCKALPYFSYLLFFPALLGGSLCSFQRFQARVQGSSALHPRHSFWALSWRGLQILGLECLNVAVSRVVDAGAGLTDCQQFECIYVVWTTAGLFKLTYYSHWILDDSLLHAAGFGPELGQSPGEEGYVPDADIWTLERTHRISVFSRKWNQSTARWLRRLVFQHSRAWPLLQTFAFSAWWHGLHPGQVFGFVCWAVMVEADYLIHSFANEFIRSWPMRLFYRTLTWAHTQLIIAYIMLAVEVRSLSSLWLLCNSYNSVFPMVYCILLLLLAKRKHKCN
Test: In vitro cell free human GOAT enzymatic assay
Format: biochemical
Conditions: GOAT-His/sf9 membrane preparation
ASSAY METRIC: IC20 (nM)

> print(dat)
                                   compound  measured.number
1  Cc1nc(C(F)(F)F)nc(N)c1CCC1CCN(C(=O)[C@H](C)NC(=O)c2ccnn2C)CC1 [Example 2]             69.5

a. Cc1nc(C(F)(F)F)nc(N)c1CCC1CCN(C(=O)[C@H](C)NC(=O)c2nccnc2Cl)CC1 [Example 15]
b. COc1ccccc1C(=O)N[C@@H](C)C(=O)N1CCC(CCc2c(C)nc(C(F)(F)F)nc2N)CC1 [Example 17]
c. COC(=O)N[C@@H](C)C(=O)N1CCC(CCc2c(C)nc(C(F)(F)F)nc2N)CC1 [Example 20]
d. Cc1nc(C(F)(F)F)nc(N)c1CCC1CCN(C(=O)[C@H](C)NC(=O)CO)CC1 [Example 18]
Problem: Arrange the 4 compounds by rising IC20, starting with the smallest. Answer by writing out the labels in the requested order.
Solution: a, d, b, c
